Molecular target: MAO B (Rattus norvegicus)
Sequence (P19643 1-520): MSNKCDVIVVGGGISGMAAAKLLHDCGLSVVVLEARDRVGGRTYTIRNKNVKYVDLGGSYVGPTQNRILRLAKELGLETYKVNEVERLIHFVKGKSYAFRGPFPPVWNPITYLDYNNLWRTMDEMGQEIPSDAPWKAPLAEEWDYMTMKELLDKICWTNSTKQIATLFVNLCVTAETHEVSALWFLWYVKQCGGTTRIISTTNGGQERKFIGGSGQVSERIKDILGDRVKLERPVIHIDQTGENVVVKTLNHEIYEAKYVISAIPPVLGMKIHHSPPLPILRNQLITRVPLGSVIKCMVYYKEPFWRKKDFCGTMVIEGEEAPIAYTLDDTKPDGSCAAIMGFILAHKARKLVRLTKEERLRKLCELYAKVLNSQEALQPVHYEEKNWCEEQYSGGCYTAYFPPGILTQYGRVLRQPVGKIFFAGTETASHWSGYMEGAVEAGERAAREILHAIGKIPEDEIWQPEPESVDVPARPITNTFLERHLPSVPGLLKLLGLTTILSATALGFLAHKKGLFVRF
Where a name gives a salt, the structure may show the parent alone.
Catalogue of compounds with associated pIC50
# pIC50 = -log10(concentration in molar units)

Cc1c(Cl)c(=O)oc2cc(OCc3csc(C(C)C)n3)c(Cl)cc12 [Example 103]    8.74
Cc1c(C)c2ccc(OCc3ncnn3C(C)C)cc2oc1=O [Example 70, hydrochloride]    7.89
CCc1cc2c(C)c(C)c(=O)oc2cc1OCc1nnc(C)s1 [Example 85]    8.16

Now examine the next entry.
Given the entry Cc1c(C)c2ccc(OCc3cc(C(C)(C)C)no3)cc2oc1=O [Example 35] , report its measured pIC50. 9.04

====

Catalogue of compounds with associated pIC50
Target: MAO A (Rattus norvegicus)
Sequence (P21396 1-526): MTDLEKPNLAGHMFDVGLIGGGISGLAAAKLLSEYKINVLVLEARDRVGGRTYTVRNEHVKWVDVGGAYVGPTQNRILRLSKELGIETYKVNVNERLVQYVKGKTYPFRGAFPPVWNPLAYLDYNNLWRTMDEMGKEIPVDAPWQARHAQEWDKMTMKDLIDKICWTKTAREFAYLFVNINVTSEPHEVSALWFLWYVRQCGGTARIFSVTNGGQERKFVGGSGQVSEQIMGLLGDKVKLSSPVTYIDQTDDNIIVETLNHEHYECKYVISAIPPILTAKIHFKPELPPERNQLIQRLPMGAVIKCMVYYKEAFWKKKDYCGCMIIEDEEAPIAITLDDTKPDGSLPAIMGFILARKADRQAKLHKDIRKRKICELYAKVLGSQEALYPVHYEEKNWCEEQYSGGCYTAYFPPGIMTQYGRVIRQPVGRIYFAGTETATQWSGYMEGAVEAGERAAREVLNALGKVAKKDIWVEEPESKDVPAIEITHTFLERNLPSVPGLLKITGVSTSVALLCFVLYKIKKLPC
pIC50: −log10 of the molar value. Where a name gives a salt, the structure may show the parent alone.

Consider the following illustrative entries.
Cc1nnc(COc2cc3oc(=O)c(C)c(C)c3cc2Br)s1    < 5.00
Cc1c(C)c2ccc(OCc3csc(C(C)C)n3)cc2oc1=O    ~5.00
Cc1noc(COc2ccc3c(C)c(C)c(=O)oc3c2)n1    ~5.40
Cc1c(C)c2ccc(OCc3cc(C(C)C)no3)cc2oc1=O    ~5.22
Cc1c(C)c2ccc(OCc3cc(C4CC4)on3)cc2oc1=O    ~5.15
Cc1c(C)c2ccc(OCc3ncnn3C(C)C)cc2oc1=O [Example 70, hydrochloride]    < 5.00

Given the entry Cc1c(C)c2cc(Cl)c(OCc3ccccn3)cc2oc1=O , report its measured pIC50. < 5.00

Same question, Cc1ccc(COc2ccc3c(C)c(C)c(=O)oc3c2)s1 this time 6.46

Reference source for all entries: patent US5073563A
